Reference source: the supplement of paper PMC11208160

Assignment: determine reported recombinant UMI read abundance (log10) for the given sequences.
# ASSAY PROTOCOL: recombinant UMI read abundance after kanamycin selection (control-corrected) (log10(CPM+1)); higher = more efficient recombination; extreme values may be limits of the assay; sequences stand for … in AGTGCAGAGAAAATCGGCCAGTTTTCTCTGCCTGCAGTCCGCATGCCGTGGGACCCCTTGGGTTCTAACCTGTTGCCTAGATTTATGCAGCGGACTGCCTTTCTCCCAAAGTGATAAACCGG…AGGTTGGTTTCACT; site = the 11-nt donor;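 further: IS621 bridge recombinase in Escherichia coli cells against a fixed T5 target plasmid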

// solved cases for recombinant UMI read abundance (log10) follow
ACACATCCATGGACCGGTTTTCCCGGTAATCCGTATTTGAC (site ACACAACCTGT); 0
TGAGCTGCATGGACCGGTTTTCCCGGTAATCCGTATTTGTG (site TCAGCTGCTCA); 0
CAGCTACCATGGACCGGTTTTCCCGGTAATCCGTATTTGCT (site CAGCTACCTAG); 0
CTATAACCATGGACCGGTTTTCCCGGTAATCCGTATTTGGA (site CTATAACCTTC); 0.0031

Problem: Return reported recombinant UMI read abundance (log10); argument: CCTAAAGCATGGACCGGTTTTCCCGGTAATCCGTATTTGAA (site CCTAAAGCTCT)
Result: 0.00343
